- Tested on: Tov-21-G
- assay.info: Primary qHTS to identify gynecologic anti-cancer compounds using libraries of approved drugs and bioactive compounds (AID 1345084); also: nearly all actives have a fitted effect of over 55% in size
- condition.set: Gynecologic cancer cell panel viability, ATPlite luminescence, 48 h; series mostly up to 57.5 µM
- Excerpt: National Center for Advancing Translational Sciences [NCATS] Assay Overview: Chemotherapeutic drug responses vary from cancer to cancer and from patient to patient. […] ATPlite is a luminescence based assay reliant on the conversion of a luciferase substrate to light in the presence of ATP. As a cytotoxic compound will suppress growth and decrease the number of cells, the concentration of ATP will decrease, and less light signal will be detected in the well. […]
Records with an inconclusive call do not appear. Activity calls are given as the source filed them. Calls follow the shape of the dose curve; as a rule, active = well fitted cell-killing curve with a large enough effect; inconclusive = small, poorly fitted or top-dose-only effect, or effect the other way; inactive = flat fitted curve, though single readings scatter.
Select the matching outcome among TRUE for active, FALSE for inactive

For orientation, consider the following solved cases.
| molecule | class.label |
| --- | --- |
| CCCCNc1ncc2c(-c3ccc(F)cc3)nn(CC3CCC(N)CC3)c2n1 (configuration not stated) | TRUE |
| CC(O)(CC(=O)O)CC(=O)OCc1ccc(O[C@@H]2O[C@H](CO)[C@@H](O)[C@H](O)[C@H]2O)cc1 (some centres not stated) | FALSE |
| C[C@@]12C[C@]3(O)O[C@H](O1)[C@]1(COC(=O)c4ccccc4)[C@H]3C[C@@]12O[C@@H]1O[C@H](CO)[C@@H](O)[C@H](O)[C@H]1O | FALSE |

Write down the call the test reported for this molecule. Item: C=C1OC2CC(C(=O)O)C=CC2NC1=O (configuration not stated)
FALSE

Write down the call the test reported for this molecule. Item: CN(CCc1ccc(Nc2ncc(-c3cccnc3)s2)cc1)Cc1ccccc1
FALSE

Write down the call the test reported for this molecule. Item: CC1=C(C(=O)O)/C(=C\CO[C@@H]2O[C@H](CO)[C@@H](O)[C@H](O)[C@H]2O)C(OC(=O)/C=C\c2ccc(O)cc2)C1 (some centres not stated)
FALSE

Write down the call the test reported for this molecule. Item: COc1cc(O)cc(C)c1C(=O)O[C@H]1[C@@H](OC(C)=O)[C@H](n2ccc(=O)[nH]c2=O)O[C@@H]1CO
FALSE

###

- System: KB-3-1
- assay.info: Cytotoxic Profiling of Annotated Libraries Using Quantitative High-Throughput Screening (AID 1296008); also: % is scaled to controls: 0 for no effect and ±100 for the full control effect; nearly all actives have a fitted effect of over 60% in size
- condition.set: Five cell lines viability, CellTiter-Glo ATP luminescence, 48-72 h; active compounds read low
Records with an inconclusive call do not appear.
quantity: max response (%)
Give bare numbers, in %.

| compound | study.target | reading.unit | max response |
| --- | --- | --- | --- |
| C=C1C(=O)O[C@H]2C1[C@H](OC(=O)/C(=C/CO)COC(=O)/C(C)=C/CO)CC(=C)[C@@H]1CC(=O)[C@@H](C)[C@@H]12 (stereo partly specified) | KB-3-1 | % | -3.1 |

Okay, here is my list. What is max response for each of these?
1. Cc1csc(NC(=O)c2ccc(COc3cccc(Cl)c3)o2)n1
2. C=C1CCC[C@]2(C)CC[C@@H](C(=C)C(=O)O)[C@H](O)[C@@H]12
3. C[C@@H]1O[C@@H](O[C@H]2[C@H](O[C@H]3CC[C@@]4(C)C(CC[C@]5(C)C4C=C[C@]46OC[C@@]7(CCC(C)(C)C[C@H]74)[C@@H](O)C[C@]65C)[C@]3(C)CO)O[C@H](CO)[C@@H](O)[C@@H]2O[C@@H]2O[C@H](CO)[C@@H](O[C@@H]3O[C@@H](C)[C@H](O)[C@@H](O)[C@H]3O)[C@H](O)[C@H]2O)[C@H](O)[C@H](O)[C@H]1O (stereo partly specified)
4. O=C(O)c1ccccc1NC(=O)N1CCC(c2ccccc2C(F)(F)F)CC1

1. -1.89
2. 1.72
3. -30.1
4. -2.67

Which max response reading was recorded for the compound CC(C)=CCCC1(C)C=Cc2c(c(C)cc3c2[nH]c2ccccc23)O1 (stereo unspecified) ?
6.53

###

- Test system: Hek293T
- assay.info: Primary qHTS to identify gynecologic anti-cancer compounds using libraries of approved drugs and bioactive compounds (AID 1345084); also: nearly all actives have a fitted effect of over 55% in size
- condition.set: Gynecologic cancer cell panel viability, ATPlite luminescence, 48 h, control line for the selectivity index; series mostly up to 57.5 µM
Results filed as inconclusive are left out. Active and inactive are the calls of the source. Calls come from the whole dose curve; as a rule, active = well fitted cell-killing curve with a large enough effect; inconclusive = small, poorly fitted or top-dose-only effect, or effect the other way; inactive = flat fitted curve, though single readings scatter.
Select the matching outcome among active, inactive

For orientation, consider the following solved cases.
| compound | class.label |
| --- | --- |
| C=C1C(O)C[C@@H]2C(C(=O)O)=CO[C@@H](O[C@@H]3O[C@H](CO)[C@@H](O)[C@H](O)[C@H]3OC(=O)c3ccc(O)cc3)[C@H]12 (stereo not given in full) | inactive |
| Cc1cc(OCc2nc(-c3ccccc3Cl)cs2)ccc1OCC(=O)O | inactive |
| O=C(O)c1cc2cccc([N+](=O)[O-])c2[nH]1 | inactive |
| C[C@H](O)[C@H](O)/C=C/c1cccc(O)c1CO | inactive |
| CC1(C)CC2C(C1)C(C)(O)C13CC1(COC3=O)C2O (stereo not given) | inactive |

Write down the call the test reported for this compound. Item: OCc1ccc(O[C@@H]2O[C@H](CO)[C@@H](O)[C@H](O)[C@H]2O)cc1
inactive

Write down the call the test reported for this compound. Item: C=C1C(=O)O[C@@H]2/C=C(\C)C(=O)/C=C/[C@](C)(O)C[C@@H](OC(=O)C(C)C)[C@@H]12
active

Write down the call the test reported for this compound. Item: Cc1oc2ccccc2c1CNC(=O)NCc1cccs1
inactive

Write down the call the test reported for this compound. Item: CC(C)C(C#N)O[C@@H]1O[C@H](CO[C@@H]2O[C@@H](C)[C@H](O)[C@@H](O)[C@H]2O)[C@@H](O)[C@H](O)[C@H]1O (stereo not given in full)
inactive

Write down the call the test reported for this compound. Item: O=C(/C=C/c1ccccc1)OC[C@]12O[C@H]1[C@@H](O)[C@@H]1C=CO[C@@H](O[C@@H]3O[C@H](CO)[C@@H](O)[C@H](O)[C@H]3O)[C@@H]12
inactive

Write down the call the test reported for this compound. Item: Cc1ccc(-c2ccc3c(ccc4sc5c(c43)NC[C@@H](C)NC5=O)n2)cn1
inactive

Write down the call the test reported for this compound. Item: C[C@H](CCC(=O)O)[C@H]1CC[C@H]2[C@@H]3C[C@H](O)[C@@H]4C[C@H](O)CC[C@]4(C)[C@H]3CC[C@]12C
inactive

Write down the call the test reported for this compound. Item: CC12CCC(OC3OC(CO)C(O)C(OC4OC(CO)C(O)C(O)C4O)C3O)CC1=CCC1C2CCC2(C)/C(=C3/COC(=O)C3)CCC12O (stereo not given)
inactive

###

- System: Tov-21-G
- assay.info: Primary qHTS to identify gynecologic anti-cancer compounds using libraries of approved drugs and bioactive compounds (AID 1345084); also: nearly all actives have a fitted effect of over 55% in size
- condition.set: Gynecologic cancer cell panel viability, ATPlite luminescence, 48 h; series mostly up to 57.5 µM
Records with an inconclusive call do not appear. The source made the active and inactive calls. The call rests on the fitted dose curve; in most records, active means well fitted cell-killing curve with a large enough effect; inconclusive means small, poorly fitted or top-dose-only effect, or effect the other way; inactive means flat fitted curve, though single readings scatter.
Select the matching outcome among yes (1) for active, no (0) for inactive

For orientation, consider the following solved cases.
| molecule | study.target | class.label |
| --- | --- | --- |
| C=C[C@H]1C(O[C@@H]2O[C@H](CO)[C@@H](O)[C@H](O)[C@H]2O)OC=C2C(=O)N3CCc4c([nH]c5ccccc45)[C@H]3C[C@H]21 (some centres not stated) | Tov-21-G | no (0) |
| CNC(=O)c1cccc(-c2ccc3c(N4CCOC[C@@H]4C)nc(N4CCOC[C@@H]4C)nc3n2)c1 | Tov-21-G | yes (1) |
| C=C(CCC1=C(C)[C@H]2[C@H](CC3[C@@H]4CC=C5C[C@@H](O)C[C@@H](O)[C@]5(C)C4[C@H](O)C[C@@]32C)O1)CO[C@@H]1O[C@H](CO)[C@@H](O)[C@H](O)[C@H]1O (some centres not stated) | Tov-21-G | yes (1) |
| O=C(O)c1cc2cccc([N+](=O)[O-])c2[nH]1 | Tov-21-G | no (0) |
| CC1=CC(=O)C(=C(C)C)CC2C1CCC2(C)O (configuration not stated) | Tov-21-G | no (0) |

Write down the call the test reported for this molecule. Item: C=C1C[C@]23C[C@H]1CC[C@H]2C1=C[C@H]2OC(=O)[C@@](C)([C@H]1[C@@H]3C(=O)O)[C@H]2O
no (0)

Write down the call the test reported for this molecule. Item: CC1(C)C2CC=C(COC3OC(COC4OCC(O)(CO)C4O)C(O)C(O)C3O)C1C2 (configuration not stated)
no (0)

###

Consider the following compounds; for each one, report its max response.
- Tested on: HaCat
- assay.info: Cytotoxic Profiling of Annotated Libraries Using Quantitative High-Throughput Screening (AID 1296008); also: % is scaled to controls: 0 for no effect and ±100 for the full control effect; nearly all actives have a fitted effect of over 60% in size
- condition.set: Five cell lines viability, CellTiter-Glo ATP luminescence, 48-72 h; active compounds read low
Inconclusive results are not listed.
One number for each entry, in %.

These solved cases illustrate the format of a correct answer.
| compound | quantity | test.value |
| --- | --- | --- |
| COC(=O)C1=CO[C@@H](O)C2C(CO)=CCC12 (stereo partly specified) | max response | -12 |
| CC/C=C/CC1=C(CCCCC(CCC(=O)O)OC(C)=O)CCC1=O (stereo unspecified) | max response | -33.4 |
| CC(=O)OCC1(O)CCC2C(COC3OC(CO)C(O)C(O)C3OC(=O)/C=C/c3ccc(O)cc3)=COC(OC(=O)CC(C)C)C21 (stereo unspecified) | max response | -35.1 |
| Cc1c(C(=O)N2CCOc3ccc(-c4ccc(N)nc4)cc3C2)ccc(S(C)(=O)=O)c1F | max response | 2.5 |
| COc1ccc(CC2NCCc3c2[nH]c2ccc(C)cc32)cc1OC (stereo unspecified) | max response | -6.85 |

Okay, here is my list. What is max response for each of these?
1. CC(C)=CCC/C(C)=C/CO[C@@H]1O[C@H](CO)[C@@H](OC(=O)/C=C/c2ccc(O)cc2)[C@H](O[C@@H]2O[C@@H](C)[C@H](O)[C@@H](O)[C@H]2O)[C@H]1O
2. Cc1ccccc1CN1C2=NCCN2C(=O)C2=C1CCN(Cc1ccccc1)C2

1. -28.8
2. -42.7
